Molecular target: T1, ^NDD5 (N-terminal docking domain of stambomycin PKS subunit Pks5) (Streptomyces ambofaciens ATCC23877)
T1 chain: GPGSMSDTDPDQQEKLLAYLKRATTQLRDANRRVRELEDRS
Assay: ITC; ^CDD (700 μM) in the syringe titrated into the ^NDD in the cell (^NDD5 70 μM; ^NDD9 Met 80 μM; ^NDD9 Val 120 μM); 20 °C; buffer GF (20 mM HEPES, 100 mM NaCl, 0.5 mM TCEP, pH 7.5); one-site binding model; two independent titrations
Conditions: both partners purified
quantity-measured: pKd
In textbook form, pKd equals minus log to base ten of the concentration in mol/L.

Qu. Query (binder): ^CDD4 wt (C-terminal docking domain of stambomycin PKS subunit Pks4) (domain or fragment) GPGSYADRLLAELARLEADLTRMDGDEEDRTRLAARLRALADRCQGERTRRDDNLDAASIEEVFDLLDTEFETP ; field requested: pKd
Ans. 4.84
